# ASSAY_OVERVIEW: 50% lethal dose (LD50) in mice
# Format: in vivo
# PROTOCOL_CONDITIONS: i.v.
Starred links: 1 amine or outer side, 2 acyl side, 3 side chain; linkers in the order of their positions; H or OH if unused. Non-standard residues stand in square brackets, D forms with d. Residues, ends and D or L forms follow the SMILES beside them. ξ: configuration not given here. X2 = CN(C(C(=O)[*:2])C(O)c1ccccc1)[*:1]; ξNMeVal(3-OH) = CNC(C(=O)O)C(C)(C)O; NMeF = CN[CH](Cc1ccccc1)C(=O)O; X1 = CCC(C)C(O[*:1])C(=O)[*:2]; NMeV = CN[CH](C(=O)O)C(C)C; Hiv = CC(C)[CH](O)C(=O)O
OBSERVATION_TYPE: LD50

Would you please look over these solved cases?
CCC(C)C1NC(=O)C2CCCN2C(=O)C(Cc2ccccc2)N(C)C(=O)C(Cc2ccccc2)NC(=O)C(C(C)C)N(C)C(=O)C(C(C)C)OC(=O)C(C(C)(C)O)N(C)C(=O)C(CC(C)C)NC(=O)C(C(C)C)N(C)C1=O (centres unmarked) [Compound 2] (cyclo([ξNMeVal(3-OH)][Hiv][NMeV]F[NMeF]PI[NMeV]L); configuration not given here) : > 100 mg/kg
CCC(C)C1NC(=O)C2CCCN2C(=O)C(C(O)c2ccccc2)N(C)C(=O)C(Cc2ccccc2)NC(=O)C(C(C)C)N(C)C(=O)C(C(C)CC)OC(=O)C(C(C)(C)O)N(C)C(=O)C(CC(C)C)NC(=O)C(C(C)C)N(C)C1=O (centres unmarked) [Compound 5] (cyclo([X2]PI[NMeV]L[ξNMeVal(3-OH)][X1][NMeV]F); configuration not given here) : > 100 mg/kg
CCC(C)C1NC(=O)C2CCCN2C(=O)C(Cc2ccccc2)N(C)C(=O)C(Cc2ccccc2)NC(=O)C(C(C)C)N(C)C(=O)C(C(C)CC)OC(=O)C(C(C)(C)O)N(C)C(=O)C(CC(C)C)NC(=O)C(C(C)C)N(C)C1=O (centres unmarked) [Compound 1] (cyclo([ξNMeVal(3-OH)][X1][NMeV]F[NMeF]PI[NMeV]L); configuration not given here) : > 200 mg/kg
CCC(C)C1NC(=O)C2CCCN2C(=O)C(Cc2ccccc2)N(C)C(=O)C(Cc2ccccc2)NC(=O)C(C(C)C)N(C)C(=O)C(C(C)CC)OC(=O)C(C(C)C)N(C)C(=O)C(CC(C)C)NC(=O)C(C(C)C)N(C)C1=O (centres unmarked) [Compound 7] (cyclo([X1][NMeV]F[NMeF]PI[NMeV]L[NMeV]); configuration not given here) : > 100 mg/kg

Moving on to another compound below.
For this compound ( CCC(C)C1OC(=O)C(C(C)(C)O)N(C)C(=O)C(CC(C)C)NC(=O)C(C(C)C)N(C)C(=O)C(CC(C)C)NC(=O)C2CCCN2C(=O)C(Cc2ccccc2)N(C)C(=O)C(Cc2ccccc2)NC(=O)C(C(C)C)N(C)C1=O (centres unmarked) [Compound 9] (cyclo([ξNMeVal(3-OH)][X1][NMeV]F[NMeF]PL[NMeV]L); configuration not given here) ), measured LD50 is > 100 mg/kg

====

# System: Cryptococcus neoformans TIMM 0354
# ASSAY_OVERVIEW: MIC by agar dilution method, casitone agar
# Assay type: cell-based
# PROTOCOL_CONDITIONS: Table 5
# Procedure: The minimum inhibitory concentration (MIC) of each antibiotic against various fungi was determined by the agar dilution method using casitone agar medium (2.0% glucose, 0.9% bacto-casitone, 1.0% yeast extract, 0.1% KH2 PO4, 0.1% Na2 HPO4, 1.0% sodium citrate, 2.0% agar: concentrations are all by w/v). Each minimum growth inhibitory concentration was determined after culturing at 27° C. for 4 days.
Starred links: 1 amine or outer side, 2 acyl side, 3 side chain; linkers in the order of their positions; H or OH if unused. Non-standard residues stand in square brackets, D forms with d. Residues, ends and D or L forms follow the SMILES beside them. NMeF = CN[CH](Cc1ccccc1)C(=O)O; X1 = CCC(C)C(O[*:1])C(=O)[*:2]; NMeV = CN[CH](C(=O)O)C(C)C
Reported values of minimum inhibitory concentration (MIC) for individual entries

CCC(C)C1NC(=O)C2CCCN2C(=O)C(Cc2ccccc2)N(C)C(=O)C(Cc2ccccc2)NC(=O)C(C(C)C)N(C)C(=O)C(C(C)CC)OC(=O)C(C(C)C)N(C)C(=O)C(CC(C)C)NC(=O)C(C(C)C)N(C)C1=O (centres unmarked) [Compound 7] (cyclo([X1][NMeV]F[NMeF]PI[NMeV]L[NMeV]); configuration not given here) : > 25

Moving on to another compound below.
For this compound ( CCC(C)C1NC(=O)C2CCCN2C(=O)C(Cc2ccccc2)N(C)C(=O)C(Cc2ccccc2)NC(=O)C(C(C)C)N(C)C(=O)C(C(C)CC)OC(=O)C(Cc2ccccc2)N(C)C(=O)C(CC(C)C)NC(=O)C(C(C)C)N(C)C1=O (centres unmarked) [Compound 17] (cyclo([X1][NMeV]F[NMeF]PI[NMeV]L[NMeF]); configuration not given here) ), measured minimum inhibitory concentration (MIC) is > 25
